Data provenance is patent US20250163056A1.

Target: Bovine cardiac myosin (Bos taurus (Bovine))
Sequence (Q9BE39 whole entry): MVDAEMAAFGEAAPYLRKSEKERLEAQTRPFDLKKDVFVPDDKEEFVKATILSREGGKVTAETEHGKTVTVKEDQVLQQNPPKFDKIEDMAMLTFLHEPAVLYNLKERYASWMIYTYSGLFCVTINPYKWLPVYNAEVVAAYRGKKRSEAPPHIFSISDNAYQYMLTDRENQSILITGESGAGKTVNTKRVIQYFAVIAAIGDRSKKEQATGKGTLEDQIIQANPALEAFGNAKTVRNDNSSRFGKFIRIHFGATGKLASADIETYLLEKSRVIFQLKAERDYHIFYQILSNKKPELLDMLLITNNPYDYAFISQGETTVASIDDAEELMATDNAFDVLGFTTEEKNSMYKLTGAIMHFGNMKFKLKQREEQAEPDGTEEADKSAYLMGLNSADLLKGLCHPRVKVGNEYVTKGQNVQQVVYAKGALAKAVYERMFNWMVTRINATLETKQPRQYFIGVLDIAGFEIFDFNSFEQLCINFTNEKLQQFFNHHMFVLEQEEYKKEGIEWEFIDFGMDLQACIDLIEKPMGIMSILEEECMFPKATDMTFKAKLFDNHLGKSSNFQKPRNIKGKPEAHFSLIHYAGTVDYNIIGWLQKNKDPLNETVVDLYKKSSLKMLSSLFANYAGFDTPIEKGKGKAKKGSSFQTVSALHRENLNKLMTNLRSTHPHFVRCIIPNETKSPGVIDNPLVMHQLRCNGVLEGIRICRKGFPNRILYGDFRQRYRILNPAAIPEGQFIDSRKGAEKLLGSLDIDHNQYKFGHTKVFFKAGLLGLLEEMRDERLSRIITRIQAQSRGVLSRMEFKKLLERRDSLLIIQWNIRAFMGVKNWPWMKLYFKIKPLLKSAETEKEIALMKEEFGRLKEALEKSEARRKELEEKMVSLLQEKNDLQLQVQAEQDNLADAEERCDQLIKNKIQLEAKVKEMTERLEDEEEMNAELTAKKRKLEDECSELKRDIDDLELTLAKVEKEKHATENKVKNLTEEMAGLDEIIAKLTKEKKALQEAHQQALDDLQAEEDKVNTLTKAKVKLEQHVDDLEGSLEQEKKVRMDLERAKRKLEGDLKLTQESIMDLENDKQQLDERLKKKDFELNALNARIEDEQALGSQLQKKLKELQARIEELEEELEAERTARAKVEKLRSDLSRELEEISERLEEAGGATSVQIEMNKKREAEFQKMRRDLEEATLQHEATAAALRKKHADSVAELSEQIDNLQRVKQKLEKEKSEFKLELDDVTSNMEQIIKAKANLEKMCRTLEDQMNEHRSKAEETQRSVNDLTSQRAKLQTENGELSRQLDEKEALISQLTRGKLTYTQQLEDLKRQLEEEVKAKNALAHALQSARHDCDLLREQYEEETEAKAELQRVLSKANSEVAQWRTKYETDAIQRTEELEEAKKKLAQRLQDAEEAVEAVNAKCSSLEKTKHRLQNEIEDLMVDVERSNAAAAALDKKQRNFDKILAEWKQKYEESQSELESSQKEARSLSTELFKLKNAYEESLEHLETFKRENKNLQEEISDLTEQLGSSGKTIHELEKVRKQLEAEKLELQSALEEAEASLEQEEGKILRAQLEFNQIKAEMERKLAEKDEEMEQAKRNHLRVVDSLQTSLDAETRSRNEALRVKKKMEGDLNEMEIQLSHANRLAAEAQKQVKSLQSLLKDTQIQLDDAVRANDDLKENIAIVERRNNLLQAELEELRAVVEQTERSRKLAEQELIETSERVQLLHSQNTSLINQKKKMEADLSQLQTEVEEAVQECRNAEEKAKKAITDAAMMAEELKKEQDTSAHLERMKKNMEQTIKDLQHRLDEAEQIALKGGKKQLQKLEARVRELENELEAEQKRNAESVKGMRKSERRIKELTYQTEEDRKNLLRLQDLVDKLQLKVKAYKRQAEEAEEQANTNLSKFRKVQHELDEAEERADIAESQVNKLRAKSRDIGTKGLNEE
Sequence (P85100 whole entry partner): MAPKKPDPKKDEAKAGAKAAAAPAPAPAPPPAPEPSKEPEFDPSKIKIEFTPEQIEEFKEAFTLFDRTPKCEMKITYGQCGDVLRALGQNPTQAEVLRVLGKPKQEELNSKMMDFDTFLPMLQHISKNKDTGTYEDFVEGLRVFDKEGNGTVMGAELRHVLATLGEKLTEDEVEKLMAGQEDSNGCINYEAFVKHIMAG
Sequence (Q3SZE5 whole entry partner): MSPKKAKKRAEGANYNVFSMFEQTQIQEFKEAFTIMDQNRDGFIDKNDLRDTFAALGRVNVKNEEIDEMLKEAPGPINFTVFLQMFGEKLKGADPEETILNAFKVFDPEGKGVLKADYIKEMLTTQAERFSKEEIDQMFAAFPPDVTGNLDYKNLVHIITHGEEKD
Test: Cardiac muscle myosin II actin-activated ATPase assay (NADH-coupled)
Assay type: biochemical
Settings: 300 nM cardiac myosin, 10 μM actin, 25° C.; read-out: CMMII KI
Rule: Ki below 30 µM gives t, anything at or above gives f.

[
  {
    "compound": "Cc1cc2c(cc1C)C(=O)[C@]1(O)CCN(c3ccc4ccoc4c3)C1=N2",
    "category": "t"
  },
  {
    "compound": "Cc1ccc2cc(N3CC[C@@]4(O)C(=O)c5cc(C)sc5N=C34)ccc2n1",
    "category": "f"
  },
  {
    "compound": "Cn1cc(N2CC[C@@]3(O)C(=O)c4cc(C(F)(F)F)ccc4N=C23)cn1",
    "category": "f"
  },
  {
    "compound": "Cc1cc2c(cc1F)C(=O)[C@]1(O)CCN(c3ccccc3)C1=N2 [BPN-0026669]",
    "category": "t"
  },
  {
    "compound": "COc1ccc(N2CC[C@@]3(O)C(=O)c4cc(C)c(C(F)(F)F)cc4N=C23)cc1",
    "category": "t"
  },
  {
    "compound": "Cc1cc2c(s1)C(=O)[C@]1(O)CCN(c3ccc(C)c(Cl)c3)C1=N2",
    "category": "t"
  },
  {
    "compound": "O=C1c2cc(Cl)ccc2NC2N(c3ccc4ccoc4c3)CC[C@@]12O (some centres unmarked)",
    "category": "f"
  },
  {
    "compound": "Cc1cc2c(s1)C(=O)[C@]1(O)CCN(c3ccc(C#N)c(C)c3)C1=N2",
    "category": "f"
  },
  {
    "compound": "Cc1cc2c(cc1C)C(=O)[C@]1(O)CCN(c3ccc4ncncc4c3)C1=N2",
    "category": "f"
  },
  {
    "compound": "COc1cccc(N2CC[C@@]3(O)C(=O)c4cc(C)c(C)cc4N=C23)c1 [BPN-0026497]",
    "category": "f"
  },
  {
    "compound": "CCc1cc2c(s1)N=C1N(c3ccc(C#N)c(C)c3)CC[C@@]1(O)C2=O",
    "category": "f"
  },
  {
    "compound": "Cc1ccc2c(c1)C(=O)[C@]1(O)CCN(c3ccc4nc(CO)ccc4c3)C1=N2",
    "category": "f"
  },
  {
    "compound": "Cc1cc2c(s1)C(=O)[C@]1(O)CCN(c3ccc4ncccc4c3)C1=N2",
    "category": "f"
  },
  {
    "compound": "Cc1cc2c(cc1F)C(=O)[C@]1(O)CCN(c3cccs3)C1=N2",
    "category": "t"
  },
  {
    "compound": "Cc1cc(N2CC[C@@]3(O)C(=O)c4cc(C)c(C(F)(F)F)cc4N=C23)on1",
    "category": "f"
  },
  {
    "compound": "Cc1cc2c(cc1C)C(=O)[C@]1(O)CCN(c3ccc4nnccc4c3)C1=N2",
    "category": "f"
  }
]
